The following molecules are shown together with reported IC50 cell viability values.
System: s1-12 (canine undifferentiated pleomorphic sarcoma culture)
observed_property: IC50 cell viability (µM)

molecule	observed_property	relational_operator	data_value
CN(C)CC[C@H](CSc1ccccc1)Nc1ccc(S(=O)(=O)NC(=O)c2ccc(N3CCN(Cc4ccccc4-c4ccc(Cl)cc4)CC3)cc2)cc1[N+](=O)[O-]	IC50 cell viability	=	1.06
Cc1nc(Nc2ncc(C(=O)Nc3c(C)cccc3Cl)s2)cc(N2CCN(CCO)CC2)n1	IC50 cell viability	=	0.86
CCN(CC)CCCC(C)Nc1c2ccc(Cl)cc2nc2ccc(OC)cc12 (centres undefined)	IC50 cell viability	=	0.99
CCNC(=O)c1noc(-c2cc(C(C)C)c(O)cc2O)c1-c1ccc(CN2CCOCC2)cc1	IC50 cell viability	=	0.03
Nc1ccccc1NC(=O)c1ccc(CNC(=O)OCc2cccnc2)cc1	IC50 cell viability	=	0.92
NC1(c2ccc(-c3nc4ccn5c(=O)[nH]nc5c4cc3-c3ccccc3)cc2)CCC1	IC50 cell viability	=	1.09
CN(C)c1ccccc1CN1CCCN(Cc2ccccc2N(C)C)C1c1ccncc1	IC50 cell viability	>	10
N#CC[C@H](C1CCCC1)n1cc(-c2ncnc3[nH]ccc23)cn1	IC50 cell viability	=	6.93
N#Cc1ccc(COC[C@H]2O[C@@H](n3c(NCc4ccc(Cl)c(Cl)c4)nc4c(N)ncnc43)[C@H](O)[C@@H]2O)cc1	IC50 cell viability	>	10

* * *

Tested on: s1-12
IC50 cell viability under 1000 nM gets TRUE, anything at or over 1000 nM gets FALSE.

molecule	measured_target	category
CC1=C(/C=C/C(C)=C/C=C/C(C)=C/C(=O)Nc2ccc(O)cc2)C(C)(C)CCC1 [Fenretinide]	s1-12	FALSE
C[C@@]1(C(=O)Nc2ccc(F)nc2)CCCN1c1nc(Nc2cc(C3CC3)n[nH]2)c2cccn2n1	s1-12	TRUE
CC1=C(/C=C/C(C)=C/C=C/C(C)=C/C(=O)O)C(C)(C)CCC1 [retinoic acid]	s1-12	FALSE
CC(/C=C/C(=O)NO)=C\[C@@H](C)C(=O)c1ccc(N(C)C)cc1 [trichostatin]	s1-12	TRUE
CCN(CCCOc1ccc2c(Nc3cc(CC(=O)Nc4cccc(F)c4)[nH]n3)ncnc2c1)CCOP(=O)(O)O [barasertib]	s1-12	FALSE
COc1nc(C)cnc1NS(=O)(=O)c1cccnc1-c1ccc(-c2nnco2)cc1 [zibotentan]	s1-12	FALSE
CS(=O)(=O)CCNCc1ccc(-c2ccc3ncnc(Nc4ccc(OCc5cccc(F)c5)c(Cl)c4)c3c2)o1 [lapatinib]	s1-12	FALSE
CN1CCN(CCOc2cc(OC3CCOCC3)c3c(Nc4c(Cl)ccc5c4OCO5)ncnc3c2)CC1 [Saracatinib]	s1-12	FALSE
COC1=CC(c2cc3ccccc3[nH]2)=N/C1=C\c1[nH]c(C)cc1C [obatoclax]	s1-12	TRUE
CNC(=O)c1cc(Oc2ccc(NC(=O)Nc3ccc(Cl)c(C(F)(F)F)c3)cc2)ccn1 [sorafenib]	s1-12	FALSE
Cc1ccc(Nc2nccc(N(C)c3ccc4c(C)n(C)nc4c3)n2)cc1S(N)(=O)=O [pazopanib]	s1-12	FALSE
CN(c1ncccc1CNc1nc(Nc2ccc3c(c2)CC(=O)N3)ncc1C(F)(F)F)S(C)(=O)=O	s1-12	FALSE
Nc1ncn([C@H]2C[C@H](O)[C@@H](CO)O2)c(=O)n1 [decitabine]	s1-12	TRUE
C[C@@H](Oc1cc(-c2cnn(C3CCNCC3)c2)cnc1N)c1c(Cl)ccc(F)c1Cl [crizotinib]	s1-12	FALSE
C[C@]1(O)C[C@@H](c2nc(-c3ccc4ccc(-c5ccccc5)nc4c3)c3c(N)nccn32)C1 [OSI-906]	s1-12	FALSE
CS(=O)(=O)c1ccc(C(=O)Nc2ccc(Cl)c(-c3ccccn3)c2)c(Cl)c1 [vismodegib]	s1-12	FALSE
Cc1cc(Nc2cc(N3CCN(C)CC3)nc(Sc3ccc(NC(=O)C4CC4)cc3)n2)n[nH]1 [tozasertib]	s1-12	FALSE
Cn1cc(C2=C(c3cn(C4CCN(Cc5ccccn5)CC4)c4ccccc34)C(=O)NC2=O)c2ccccc21 [enzastaurin]	s1-12	FALSE
CCOc1cc2ncc(C#N)c(Nc3ccc(F)c(Cl)c3)c2cc1NC(=O)/C=C/CN(C)C [pelitinib]	s1-12	TRUE
CCCC(=O)[O-].[Na+] [sodium butyrate]	s1-12	FALSE
COc1cc2c(Oc3ccc4[nH]c(C)cc4c3F)ncnc2cc1OCCCN1CCCC1 [cediranib]	s1-12	FALSE
Cc1ccc(C(=O)Nc2ccc(CN3CCN(C)CC3)c(C(F)(F)F)c2)cc1C#Cc1cnc2cccnn12 [ponatinib]	s1-12	TRUE
CCOc1cc(C(C)(C)C)ccc1C1=N[C@@](C)(c2ccc(Cl)cc2)[C@@](C)(c2ccc(Cl)cc2)N1C(=O)N1CCN(CCCS(C)(=O)=O)CC1	s1-12	FALSE
CNC(=O)CN1CCC(Oc2cc3c(Nc4cccc(Cl)c4F)ncnc3cc2OC)CC1 [AZD-8931]	s1-12	FALSE
Oc1c2ccccc2c2c3c(cccc13)N=N2	s1-12	FALSE
CN1CC[C@H](c2c(O)cc(O)c3c(=O)cc(-c4ccccc4Cl)oc23)[C@H](O)C1 [Alvocidib]	s1-12	TRUE
COc1cc2/c(=N/c3ccc(Br)cc3F)nc[nH]c2cc1OCC1CCN(C)CC1 [Vandetanib]	s1-12	FALSE
Nc1cccc2c1CN(C1CCC(=O)NC1=O)C2=O (stereo not drawn) [Lenalidomide]	s1-12	FALSE
Cc1cn(-c2cc(NC(=O)c3ccc(C)c(Nc4nccc(-c5cccnc5)n4)c3)cc(C(F)(F)F)c2)cn1 [Nilotinib]	s1-12	FALSE
CCCS(=O)(=O)Nc1ccc(F)c(C(=O)c2c[nH]c3ncc(-c4ccc(Cl)cc4)cc23)c1F [vemurafenib]	s1-12	FALSE
CC(C)(C(=O)NCC(F)(F)C(F)(F)F)C(=O)N[C@@H]1C(=O)Nc2ccccc2-c2ccccc21	s1-12	FALSE

* * *

The compounds listed here are annotated with their IC50 cell viability.
System: PCB-490-5 (human epithelioid sarcoma primary culture)
Where a name gives a salt, the structure may show the parent alone.

compound	IC50 cell viability
CO[C@@H]1[C@H](N(C)C(=O)c2ccccc2)C[C@H]2O[C@]1(C)n1c3ccccc3c3c4c(c5c6ccccc6n2c5c31)C(=O)NC4	1.73 µM
COc1cccc(OCCCN)c1-c1cc(Nc2cnc(C#N)cn2)n[nH]1	> 10 µM
Cc1ccc(Nc2nccc(N(C)c3ccc4c(C)n(C)nc4c3)n2)cc1S(N)(=O)=O	> 10 µM
CC(C)n1c(/C=C/C(O)CC(O)CC(=O)O)c(-c2ccc(F)cc2)c2ccccc21 (stereo unspecified)	1.32 µM
CC(C)(C)Cn1c(N)nc2ccc(-c3[nH]c(C(C)(C)C)nc3-c3ccc(F)cc3)nc21	> 10 µM
Cn1cc(NC(=O)c2cc(NC(=O)CNC(=N)N)cn2C)cc1C(=O)NCCC(=N)N [Netropsin Dihydrochloride]	> 10 µM
CC(=O)c1c(C)c2cnc(Nc3ccc(N4CCNCC4)cn3)nc2n(C2CCCC2)c1=O	> 10 µM
Cc1nc(Nc2ncc(C(=O)Nc3c(C)cccc3Cl)s2)cc(N2CCN(CCO)CC2)n1	0.39 µM
COc1cc2nc(N3CCCN(C)CC3)nc(NC3CCN(Cc4ccccc4)CC3)c2cc1OC	6.69 µM
O=C1NC(=O)C(c2cnc3ccccn23)=C1c1cn2c3c(cc(F)cc13)CN(C(=O)N1CCCCC1)CC2	> 10 µM
CCOC(=O)CCNc1cc(N2CCc3ccccc3CC2)nc(-c2ccccn2)n1 [GSK-J4 HCl]	> 10 µM
CC(C)(C(=O)NCC(F)(F)C(F)(F)F)C(=O)N[C@@H]1C(=O)Nc2ccccc2-c2ccccc21	> 10 µM
C=C[C@@]1(C)CC(=O)[C@]2(O)[C@@]3(C)[C@@H](O)CCC(C)(C)[C@@H]3[C@H](O)[C@H](OC(C)=O)[C@@]2(C)O1	> 10 µM
C[C@@H](Oc1cc(-c2cnn(C3CCNCC3)c2)cnc1N)c1c(Cl)ccc(F)c1Cl	4.62 µM
CN[C@@H](C)C(=O)N[C@H](C(=O)N1CCC[C@H]1c1nc(C(=O)c2ccc(F)cc2)cs1)C1CCCCC1	> 10 µM
CCOc1cc(C(C)(C)C)ccc1C1=N[C@@](C)(c2ccc(Cl)cc2)[C@@](C)(c2ccc(Cl)cc2)N1C(=O)N1CCN(CCCS(C)(=O)=O)CC1	> 10 µM

* * *

ESX measurements of IC50 cell viability, listed per entry.

molecule	measured_target	relational_operator	IC50 cell viability [nM]
COCC[n+]1c2c(n(Cc3cnccn3)c1C)C(=O)c1ccccc1C2=O	ESX	=	20
Cc1ccc(S(=O)(=O)/C=C/C#N)cc1	ESX	>	10000
CC(C)n1c(/C=C/C(O)CC(O)CC(=O)O)c(-c2ccc(F)cc2)c2ccccc21 (stereo not drawn)	ESX	=	2500

* * *

Entries with their measured log10 IC50 cell viability, system s1-12:
observed_property: log10 IC50 cell viability (log10 of the value in nM)

chemical_structure	measured_target	log10 IC50 cell viability
COc1cc2nc(N3CCCN(C)CC3)nc(NC3CCN(Cc4ccccc4)CC3)c2cc1OC	s1-12	3.24
CCc1cnn2c(NCc3ccc[n+]([O-])c3)cc(N3CCCC[C@H]3CCO)nc12	s1-12	1.00
CC(C)C[C@H](NC(=O)[C@H](Cc1ccccc1)NC(=O)c1cnccn1)B(O)O	s1-12	3.67
Cn1cnc2c(F)c(Nc3ccc(Br)cc3Cl)c(C(=O)NOCCO)cc21	s1-12	3.19
C=C1C[C@@H]2CC[C@@]34C[C@H]5O[C@H]6[C@@H](O3)[C@H]3O[C@H](CC[C@@H]3O[C@H]6[C@H]5O4)CC(=O)C[C@@H]3[C@@H](OC)[C@@H](C[C@H](O)CN)O[C@H]3C[C@H]3O[C@@H](CC[C@@H]1O2)C[C@@H](C)C3=C	s1-12	3.12
Cc1[nH]c2ccccc2c1CCNCc1ccc(/C=C/C(=O)NO)cc1	s1-12	2.00
COc1cc(Nc2ncc(F)c(Nc3ccc4c(n3)N(COP(=O)(O)O)C(=O)C(C)(C)O4)n2)cc(OC)c1OC	s1-12	2.86
Cn1c(=O)n(-c2ccc(C(C)(C)C#N)cc2)c2c3cc(-c4cnc5ccccc5c4)ccc3ncc21	s1-12	2.34
CC(C)(C)c1cnc(CSc2cnc(NC(=O)C3CCNCC3)s2)o1	s1-12	2.04
